Each entry below carries its recorded fold induction at 24 h, 0.01 µM.
# target desc: AhR (Homo sapiens)
# Construct: endogenous in cells; host or cells: AZ-AHR (HepG2)
# Sequence (P35869 11-848): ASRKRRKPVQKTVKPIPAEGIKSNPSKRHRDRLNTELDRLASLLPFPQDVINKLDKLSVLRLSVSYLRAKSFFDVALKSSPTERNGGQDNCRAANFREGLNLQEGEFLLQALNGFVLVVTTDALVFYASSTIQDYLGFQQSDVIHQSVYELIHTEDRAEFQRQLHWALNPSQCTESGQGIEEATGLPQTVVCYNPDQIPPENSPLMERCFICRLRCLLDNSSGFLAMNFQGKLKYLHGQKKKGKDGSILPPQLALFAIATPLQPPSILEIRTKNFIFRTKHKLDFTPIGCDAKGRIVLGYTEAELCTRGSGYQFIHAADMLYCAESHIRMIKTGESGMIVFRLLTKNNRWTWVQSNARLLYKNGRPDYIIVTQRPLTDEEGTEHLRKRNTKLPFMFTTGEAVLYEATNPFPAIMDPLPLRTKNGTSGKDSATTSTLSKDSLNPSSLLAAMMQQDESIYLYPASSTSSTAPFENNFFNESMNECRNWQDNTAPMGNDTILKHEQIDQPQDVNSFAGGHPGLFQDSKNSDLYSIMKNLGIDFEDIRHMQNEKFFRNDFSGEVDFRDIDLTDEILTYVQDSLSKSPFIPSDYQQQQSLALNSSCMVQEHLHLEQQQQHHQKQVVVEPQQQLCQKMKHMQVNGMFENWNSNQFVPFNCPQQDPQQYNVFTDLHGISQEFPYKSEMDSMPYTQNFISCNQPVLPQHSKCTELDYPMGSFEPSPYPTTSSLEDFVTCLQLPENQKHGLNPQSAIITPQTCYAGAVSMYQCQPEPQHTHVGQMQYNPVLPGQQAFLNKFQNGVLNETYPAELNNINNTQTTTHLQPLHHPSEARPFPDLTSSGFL
# protocol notes: AhR reporter assay, HepG2 cells stably expressing pCYP1A1 luciferase (AZ-AHR)
# Type: cell-based
# run conditions: human; AZ-AHR cells, 10 nM, fold vs DMSO
Provide a numeric answer; units are not to be included.

// worked examples, fold induction at 24 h, 0.01 µM included
{"molecule": "O=C(c1ccncc1)c1cc2ccccc2n1S(=O)(=O)c1ccccc1", "assay value": 0.8}
{"molecule": "C#CCC(O)(c1ccncc1)c1cc2ccccc2n1S(=O)(=O)c1ccccc1 (stereo not drawn)", "assay value": 0.7}

Measured fold induction at 24 h, 0.01 µM for this entry Cc1[nH]c2ccccc2c1C(c1c(C)[nH]c2ccccc12)c1c(C)[nH]c2ccccc12 [FKK999, reference compound] on AhR (Homo sapiens): 1

* * *

# Tested on: Cyp3a11
# protocol notes: PXR target gene expression in C57BL/6 mice after FKK6 gavage
# Assay type: in vivo, mouse
# run conditions: both sexes, C57BL/6J, mouse, in vivo; 500 μM, 5 doses (60 h), individual mice; read-out: Cyp3a11 fold induction, Large Intestine
readout type: fold induction at 60 h, 500 µM
Write no unit; give the number alone.

Record C#CCC(O)(c1ccncc1)c1cc2ccccc2n1S(=O)(=O)c1ccccc1 (stereo not shown) . Reported fold induction at 60 h, 500 µM: 2.55

* * *

The following molecules are listed with their measured FOLD INDUCTION of PXR reporter luciferase activity values.
# target desc: PXR (Homo sapiens)
# protocol notes: PXR reporter (p3A4-luc luciferase) assay in LS180 cells transiently transfected with wild-type PXR
# run conditions: 1 nM, 24 h, over UT
Number only, in fold; omit the unit.

Some entries whose results are on file:
{"molecule": "OC(Cc1cc2ccccc2[nH]1)(c1ccncc1)c1cc2ccccc2[nH]1 (centres unmarked)", "units": "fold", "assay value": 1.3}
{"molecule": "OC(c1ccncc1)(c1cc2ccccc2[nH]1)c1cc2ccccc2[nH]1", "units": "fold", "assay value": 1.3}
{"molecule": "CC#CC(O)(c1ccncc1)c1cc2ccccc2n1COCC (centres unmarked)", "units": "fold", "assay value": 1.4}

Summary line: CC#CC(O)(c1ccncc1)c1cc2ccccc2n1S(=O)(=O)c1ccccc1 (racemic) , PXR (Homo sapiens), reported FOLD INDUCTION of PXR reporter luciferase activity = 2.5

# lookup: O=S(=O)(c1ccccc1)n1c(C(O)c2ccncc2)cc2ccccc21 (racemic) on PXR (Homo sapiens), FOLD INDUCTION of PXR reporter luciferase activity = 1.6

Simply: O=S(=O)(c1ccccc1)n1c(C(O)Cc2cc3ccccc3[nH]2)cc2ccccc21 (racemic) , PXR (Homo sapiens), FOLD INDUCTION of PXR reporter luciferase activity = 1.0

PXR (Homo sapiens) FOLD INDUCTION of PXR reporter luciferase activity of O=S(=O)(c1ccccc1)n1c(C(O)(Cc2cc3ccccc3[nH]2)c2ccncc2)cc2ccccc21 (racemic) is 1.1

Record CCOCn1c(C(O)(Cc2cc3ccccc3[nH]2)c2ccncc2)cc2ccccc21 (racemic) ; system PXR (Homo sapiens); FOLD INDUCTION of PXR reporter luciferase activity = 1.1

* * *

Property: aver (mean luciferase signal of H1-H4); scope: individual compounds
# target desc: PXR (Homo sapiens)
# protocol notes: PXR reporter (p3A4-luc luciferase) assay in LS180 cells transiently transfected with wild-type PXR
# run conditions: 100 nM
Just the number.

Sample records with aver (mean luciferase signal of H1-H4):
{"compound": "CCOCn1c(C(O)(Cc2cc3ccccc3[nH]2)c2ccncc2)cc2ccccc21 (racemic)", "aver (mean luciferase signal of H1-H4)": 5944.0}
{"compound": "C#CCC(O)(c1ccncc1)c1cc2ccccc2n1S(=O)(=O)c1ccccc1 (centres unmarked)", "aver (mean luciferase signal of H1-H4)": 9089.3}
{"compound": "O=S(=O)(c1ccccc1)n1c(C(O)Cc2cc3ccccc3[nH]2)cc2ccccc21 (racemic)", "aver (mean luciferase signal of H1-H4)": 8608.8}

Tested on PXR (Homo sapiens), the item CC#CC(O)(c1ccncc1)c1cc2ccccc2n1S(=O)(=O)c1ccccc1 (racemic) showed aver (mean luciferase signal of H1-H4) equal to 7075.5

For the compound CC#CC(O)(c1ccncc1)c1cc2ccccc2n1COCC (centres unmarked) , the measured aver (mean luciferase signal of H1-H4) on PXR (Homo sapiens) was 5499.3

Considering OC(c1ccncc1)(c1cc2ccccc2[nH]1)c1cc2ccccc2[nH]1 , its aver (mean luciferase signal of H1-H4) with PXR (Homo sapiens) was recorded as 3008.8

The measured aver (mean luciferase signal of H1-H4) that OC(Cc1cc2ccccc2[nH]1)(c1ccncc1)c1cc2ccccc2[nH]1 (centres unmarked) showed for PXR (Homo sapiens) is 4278.0

Reported aver (mean luciferase signal of H1-H4) (PXR (Homo sapiens)) for entry O=S(=O)(c1ccccc1)n1c(C(O)(Cc2cc3ccccc3[nH]2)c2ccncc2)cc2ccccc21 (racemic) is 6280.8

Bench note, PXR (Homo sapiens): entry O=C(c1ccncc1)c1cc2ccccc2n1S(=O)(=O)c1ccccc1 , its aver (mean luciferase signal of H1-H4) = 4741.5

Item O=S(=O)(c1ccccc1)n1c(C(O)c2ccncc2)cc2ccccc21 (racemic) ; assay system PXR (Homo sapiens); aver (mean luciferase signal of H1-H4) reported as 3738.8

# value of aver (mean luciferase signal of H1-H4), PXR (Homo sapiens), item Cc1[nH]c2ccccc2c1C(c1c(C)[nH]c2ccccc12)c1c(C)[nH]c2ccccc12 [FKK999, reference compound] = 5905.5

* * *

# target desc: PXR (Homo sapiens)
# Sequence (O75469 1-434): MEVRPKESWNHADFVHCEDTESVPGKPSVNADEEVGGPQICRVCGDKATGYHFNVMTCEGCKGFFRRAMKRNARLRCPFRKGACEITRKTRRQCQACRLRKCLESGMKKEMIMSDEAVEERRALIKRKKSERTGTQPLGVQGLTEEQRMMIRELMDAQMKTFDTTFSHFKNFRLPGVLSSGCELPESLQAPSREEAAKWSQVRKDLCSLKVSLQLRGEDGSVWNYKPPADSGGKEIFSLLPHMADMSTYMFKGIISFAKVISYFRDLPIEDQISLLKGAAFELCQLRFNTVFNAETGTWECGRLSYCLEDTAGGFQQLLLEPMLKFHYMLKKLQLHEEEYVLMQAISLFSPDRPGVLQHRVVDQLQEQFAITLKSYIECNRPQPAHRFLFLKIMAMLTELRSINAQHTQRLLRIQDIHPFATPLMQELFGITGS
# protocol notes: PXR reporter (p3A4-luc luciferase) assay in LS180 cells transiently transfected with wild-type PXR
# run conditions: 10 nM
// assign YES if aver (mean luciferase signal of H1-H4) falls strictly below 4000, else NO (ties count as NO)

Here's what some known entries look like.
{"compound": "CCOCn1c(C(O)(Cc2cc3ccccc3[nH]2)c2ccncc2)cc2ccccc21 (racemic)", "assigned class": "NO"}
{"compound": "O=S(=O)(c1ccccc1)n1c(C(O)Cc2cc3ccccc3[nH]2)cc2ccccc21 (racemic)", "assigned class": "NO"}
{"compound": "CC#CC(O)(c1ccncc1)c1cc2ccccc2n1S(=O)(=O)c1ccccc1 (racemic)", "assigned class": "YES"}
{"compound": "Cc1[nH]c2ccccc2c1C(c1c(C)[nH]c2ccccc12)c1c(C)[nH]c2ccccc12 [FKK999, reference compound]", "assigned class": "YES"}
{"compound": "OC(c1ccncc1)(c1cc2ccccc2[nH]1)c1cc2ccccc2[nH]1", "assigned class": "YES"}
{"compound": "O=S(=O)(c1ccccc1)n1c(C(O)(Cc2cc3ccccc3[nH]2)c2ccncc2)cc2ccccc21 (racemic)", "assigned class": "NO"}

I'd appreciate it if you could check whether O=C(c1ccncc1)c1cc2ccccc2n1S(=O)(=O)c1ccccc1 has aver (mean luciferase signal of H1-H4) smaller than 4000.
NO
